- assay: Mouse blood levels after single intramuscular injection
- Format: in vivo, mice
- measurement_conditions: 10 mg/kg im, 40 minutes, read-out: Mouse Blood Level
readout_name: concentration at 40 min

Illustrative cases are given below, each with its answer.
{"compound": "CSc1scc[n+]1CC1=C(C(=O)[O-])N2C(=O)C(NC(=O)/C(=N\\OC(C)(C)C(=O)O)c3csc(N)n3)[C@H]2SC1 (stereo partly drawn)", "readout_name": "concentration at 40 min", "meas_value": "< 3000 ng/mL"}
{"compound": "CO/N=C(\\C(=O)NC1C(=O)N2C(C(=O)[O-])=C(C[n+]3ccsc3SC)CS[C@H]12)c1csc(N)n1 (stereo partly drawn)", "readout_name": "concentration at 40 min", "meas_value": "10000 ng/mL"}

Okay, next one:
Task item: Dear colleague, I am looking for the recorded concentration at 40 min of the following compound: CSc1scc[n+]1CC1=C(C(=O)[O-])N2C(=O)C(NC(=O)/C(=N\OC3(C(=O)O)CCC3)c3csc(N)n3)[C@H]2SC1 (stereo partly drawn)
Reply: < 1600 ng/mL

====

Entries and their concentration at 10 min values follow.
- assay: Mouse blood levels after single intramuscular injection
- Type: in vivo, mice
- measurement_conditions: 20 mg/kg im, 10 minutes, read-out: Mouse Blood Level
The figure you give is taken to be in ng/mL; do not add the unit.

Completed entries (count: 2):
{"molecule": "CSc1scc[n+]1CC1=C(C(=O)[O-])N2C(=O)C(NC(=O)/C(=N\\OC(C)(C)C(=O)O)c3csc(N)n3)[C@H]2SC1 (stereo partly drawn)", "meas_value": 33000}
{"molecule": "CSc1scc[n+]1CC1=C(C(=O)[O-])N2C(=O)C(NC(=O)/C(=N\\OC3(C(=O)O)CCC3)c3csc(N)n3)[C@H]2SC1 (stereo partly drawn)", "meas_value": 22000}

Task item: Returns the measured concentration at 10 min for the input molecule. Input: CO/N=C(\C(=O)NC1C(=O)N2C(C(=O)[O-])=C(C[n+]3ccsc3SC)CS[C@H]12)c1csc(N)n1 (stereo partly drawn)
Reply: 24000

====

- assay: Mouse blood levels after single intramuscular injection
- Format: in vivo, mice
- measurement_conditions: 20 mg/kg im, 50 minutes, read-out: Mouse Blood Level
Recorded concentration at 50 min values for a group of compounds are listed next.
Give your result in ng/mL as a bare value.

The cases that follow already have their concentration at 50 min on record.
{"compound": "CO/N=C(\\C(=O)NC1C(=O)N2C(C(=O)[O-])=C(C[n+]3ccsc3SC)CS[C@H]12)c1csc(N)n1 (stereo partly drawn)", "readout_name": "concentration at 50 min", "unit_of_measurement": "ng/mL", "meas_value": 13000}
{"compound": "CSc1scc[n+]1CC1=C(C(=O)[O-])N2C(=O)C(NC(=O)/C(=N\\OC(C)(C)C(=O)O)c3csc(N)n3)[C@H]2SC1 (stereo partly drawn)", "readout_name": "concentration at 50 min", "unit_of_measurement": "ng/mL", "meas_value": 6700}

Task item: Name the reported concentration at 50 min value associated with the compound CSc1scc[n+]1CC1=C(C(=O)[O-])N2C(=O)C(NC(=O)/C(=N\OC3(C(=O)O)CCC3)c3csc(N)n3)[C@H]2SC1 (stereo partly drawn)
Reply: 2400

====

In this section we review reported MIC values for a set of compounds.
- System: Cephalothinsensitive E. coli, Kl. pneumoniae and Pr. mirabilis
- assay: MIC, two-fold serial agar dilution in Mueller-Hinton agar, group (G-)-Ia
- Assay type: cell-based
- measurement_conditions: (G-)-Ia, cephalothin-sensitive E. coli (2), Kl. pneumoniae (1), Pr. mirabilis (2 strains); read-out: Geometric Mean of MIC
State just the number; it will be interpreted in µg/mL.

Examples from the recorded data:
{"compound": "CNc1scc[n+]1CC1=C(C(=O)[O-])N2C(=O)C(NC(=O)/C(=N\\OC(C)(C)C(=O)O)c3csc(N)n3)[C@H]2SC1 (stereo partly shown)", "system_name": "Cephalothinsensitive E. coli, Kl. pneumoniae and Pr. mirabilis", "MIC, µg/mL": 0.4}
{"compound": "CC(C)(O/N=C(\\C(=O)NC1C(=O)N2C(C(=O)[O-])=C(C[n+]3ccsc3)CSC12)c1csc(N)n1)C(=O)O (stereo not shown)", "system_name": "Cephalothinsensitive E. coli, Kl. pneumoniae and Pr. mirabilis", "MIC, µg/mL": 0.13}
{"compound": "CO/N=C(\\C(=O)NC1C(=O)N2C(C(=O)[O-])=C(C[n+]3ccsc3SC)CS[C@H]12)c1csc(N)n1 (stereo partly shown)", "system_name": "Cephalothinsensitive E. coli, Kl. pneumoniae and Pr. mirabilis", "MIC, µg/mL": 0.022}

We next turn to a different compound, shown below.
Task item: Form field: reported MIC of CCSc1scc[n+]1CC1=C(C(=O)[O-])N2C(=O)C(NC(=O)/C(=N\OC3(C(=O)O)CCC3)c3csc(N)n3)[C@H]2SC1 (stereo partly shown)
Reply: 0.066

====

- assay: Mouse blood levels after single intramuscular injection
- Type: in vivo, mice
- measurement_conditions: 20 mg/kg im, 60 minutes, read-out: Mouse Blood Level
readout_name: concentration at 1 h (ng/mL)
Give the value in ng/mL but do not write ng/mL after it.

{"compound": "CSc1scc[n+]1CC1=C(C(=O)[O-])N2C(=O)C(NC(=O)/C(=N\\OC(C)(C)C(=O)O)c3csc(N)n3)[C@H]2SC1 (stereo partly drawn)", "meas_value": 3500}

Task item: Which concentration at 1 h value belongs to CO/N=C(\C(=O)NC1C(=O)N2C(C(=O)[O-])=C(C[n+]3ccsc3SC)CS[C@H]12)c1csc(N)n1 (stereo partly drawn) ?
Reply: 11000

====

- assay: Mouse blood levels after single intramuscular injection
- Format: in vivo, mice
- measurement_conditions: 10 mg/kg im, 60 minutes, read-out: Mouse Blood Level
readout_name: concentration at 1 h (ng/mL)
Field: numeric (ng/mL). Do not append units.

Task item: Look up concentration at 1 h for this molecule: CO/N=C(\C(=O)NC1C(=O)N2C(C(=O)[O-])=C(C[n+]3ccsc3SC)CS[C@H]12)c1csc(N)n1 (stereo partly shown)
Reply: 6800

====

- System: Ps. aeruginosa A9843
- assay: MIC against specific test organism
- Assay type: cell-based
- measurement_conditions: Pseudomonas aeruginosa, read-out: Minimum Inhibitory Concentration
readout_name: MIC (µg/mL)
# number only, unit µg/mL dropped from output

// worked examples, MIC included
{"compound": "CO/N=C(\\C(=O)NC1C(=O)N2C(C(=O)[O-])=C(C[n+]3ccsc3SC)CS[C@H]12)c1csc(N)n1 (stereo partly shown)", "readout_name": "MIC", "unit_of_measurement": "µg/mL", "meas_value": 3.1}
{"compound": "CCO/N=C(\\C(=O)NC1C(=O)N2C(C(=O)[O-])=C(C[n+]3ccsc3SC)CS[C@H]12)c1csc(N)n1 (stereo partly shown)", "readout_name": "MIC", "unit_of_measurement": "µg/mL", "meas_value": 12.5}
{"compound": "CSc1scc[n+]1CC1=C(C(=O)[O-])N2C(=O)C(NC(=O)/C(=N\\OC3(C(=O)O)CCC3)c3csc(N)n3)[C@H]2SC1 (stereo partly shown)", "readout_name": "MIC", "unit_of_measurement": "µg/mL", "meas_value": 1.6}

Task item: Returns the measured MIC for the input compound. Input: CSc1scc[n+]1CC1=C(C(=O)[O-])N2C(=O)C(NC(=O)/C(=N\OC(C)(C)C(=O)O)c3csc(N)n3)[C@H]2SC1 (stereo partly shown)
Reply: 1.6

====

- assay: Mouse blood levels after single intramuscular injection
- Assay type: in vivo, mice
- measurement_conditions: 10 mg/kg im, 90 minutes, read-out: Mouse Blood Level
readout_name: concentration at 1.5 h (ng/mL)
State just the number; it will be interpreted in ng/mL.

Task item: For the compound shown here, CO/N=C(\C(=O)NC1C(=O)N2C(C(=O)[O-])=C(C[n+]3ccsc3SC)CS[C@H]12)c1csc(N)n1 (stereo partly shown) , give the reported concentration at 1.5 h.
Reply: 5200

====

- System: E. coli Juhl
readout_name: MIC
Please provide the amount together with its unit, number first.

Some molecules with recorded MIC:
{"molecule": "CSc1scc[n+]1CC1=C(C(=O)[O-])N2C(=O)C(NC(=O)/C(=N\\OC3(C(=O)O)CCC3)c3csc(N)n3)[C@H]2SC1 (stereo partly shown)", "meas_value": "0.1 µg/mL"}
{"molecule": "CO/N=C(\\C(=O)NC1C(=O)N2C(C(=O)[O-])=C(C[n+]3ccsc3SC)CS[C@H]12)c1csc(N)n1 (stereo partly shown)", "meas_value": "0.025 µg/mL"}
{"molecule": "CCO/N=C(\\C(=O)NC1C(=O)N2C(C(=O)[O-])=C(C[n+]3ccsc3SC)CS[C@H]12)c1csc(N)n1 (stereo partly shown)", "meas_value": "0.1 µg/mL"}

Task item: Value lookup for MIC; key = CSc1scc[n+]1CC1=C(C(=O)[O-])N2C(=O)C(NC(=O)/C(=N\OC(C)(C)C(=O)O)c3csc(N)n3)[C@H]2SC1 (stereo partly shown)
Reply: 0.1 µg/mL
